system: MCF10A (GM); experiment: area over the GR curve, 72 h; higher = more effect;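 also: Dye Drop or Deep Dye Drop imaging of viable cells in 384-well plates (Hoechst nuclei, LIVE/DEAD dye), nine half-log doses, GR normalized to DMSO controls and time-zero plates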
Quick rule: area over the GR curve of at least 0.2 GR means 1, below that means -1.

Example results:
{"Compound": "CNCc1ccc(-c2[nH]c3cc(F)cc4c3c2CCNC4=O)cc1 [Rucaparib] (max 10 µM)", "Measured target": "MCF10A (GM)", "Class assignment": -1}
{"Compound": "C[C@@H]1COCCN1c1cc(C2([S@](C)(=N)=O)CC2)nc(-c2cc[nH]c3nccc2-3)n1 [AZD6738] (max 10 µM)", "Measured target": "MCF10A (GM)", "Class assignment": -1}
{"Compound": "COc1ccc2c(c1)[C@]1(C[C@H]1c1ccc3c(/C=C/c4ccc(CN5C[C@@H](C)O[C@@H](C)C5)cc4)n[nH]c3c1)C(=O)N2", "Measured target": "MCF10A (GM)", "Class assignment": 1}

Query string: Decide: is the reported value of area over the GR curve for C=CC(=O)Nc1ccc(C(=O)Nc2[nH]nc3c2CN(C(=O)N[C@H](CN(C)C)c2ccccc2)C3(C)C)cc1 [YKL-5-124] (max 10 µM) equal to or greater than 0.2 GR?
Result string: 1

Query string: Check the entry COc1cccc(OCCCN)c1-c1cc(Nc2cnc(C#N)cn2)n[nH]1 : does area over the GR curve equal or exceed 0.2 GR?
Result string: 1

====

test system: MCF7; assay: GRmax, 72 h; higher = less effect
Class assignment keyed on GRmax, 72 h, ranges A = under -0.05 GR, B = from -0.05 GR up to 0.5 GR, C = 0.5 GR and over

Query string: The entry to classify is Cc1cc(C(C)Nc2ccccc2)c2nc(N3CCOCC3)cc(=O)n2c1 (stereo not given) [TGX221] (max 10 µM) ; which class holds it?
Result string: C

Query string: Which category fits this record: C[C@@H]1COCCN1c1cc(C2([S@](C)(=N)=O)CC2)nc(-c2cc[nH]c3nccc2-3)n1 [AZD6738] (max 10 µM)
Result string: B

====

test system: SKBR3; test: GRmax, 72 h; higher = less effect;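 also: breast cell lines in 384-well plates, nine doses across a 10^4 range, Dye Drop imaging of viable cells vs DMSO and time-zero plates, GR 0 means no net growth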
Please assign a class to every record based on measured GRmax, 72 h, with ranges low bracket = under -0.05 GR, middle bracket = from -0.05 GR up to 0.4 GR, high bracket = 0.4 GR and over

# example entries with known answers
{"Compound": "CC(C)n1nc(-c2ccc3oc(N)nc3c2)c2c(N)ncnc21 [INK128/MLN0128] (max 3.162 µM)", "Class assignment": "low bracket"}
{"Compound": "NC(=O)Nc1cc(-c2cccc(F)c2)sc1C(=O)N[C@H]1CCCNC1 [AZD7762] (max 10 µM)", "Class assignment": "low bracket"}
{"Compound": "CC(C)NC[C@@H](C(=O)N1CCN(c2ncnc3c2[C@H](C)C[C@H]3O)CC1)c1ccc(Cl)cc1 [Ipatasertib/GDC0068] (max 10 µM)", "Class assignment": "middle bracket"}
{"Compound": "CNc1nc(-c2ccc3c(N)n[nH]c3c2)cc(N2C[C@@H](C(=O)NC3CCCCC3)CC[C@H]2C)n1 (max 10 µM)", "Class assignment": "middle bracket"}
{"Compound": "CO[C@@H](C)Cn1c(=O)n(C)c2cnc3ccc(-c4cncc(C(C)(C)O)c4)cc3c21 (max 10 µM)", "Class assignment": "low bracket"}

Query string: Tag the class for CCN1CCN(Cc2ccc(Nc3ncc(F)c(-c4cc(F)c5nc(C)n(C(C)C)c5c4)n3)nc2)CC1 (max 10 µM)
Result string: middle bracket

Query string: Exam item: assign COc1cccc(OCCCN)c1-c1cc(Nc2cnc(C#N)cn2)n[nH]1 to the correct category.
Result string: low bracket

Query string: Exam item: assign CC(=O)c1c(C)c2cnc(Nc3ccc(N4CCNCC4)cn3)nc2n(C2CCCC2)c1=O (max 3.162 µM) to the correct category.
Result string: middle bracket

Query string: Using the reported GRmax, 72 h, which band applies to CN1CCN(C(=O)c2ccc3cc(CCNc4ncnc5ccc(C#N)cc45)ccc3c2)CC1 [senexin b] (max 10 µM) ?
Result string: high bracket

Query string: Class (by measured GRmax, 72 h) for Cc1nn(C)c(COc2ccc(N3CCN(S(=O)(=O)N(C)C)CC3)cc2)c1-c1cccc2c(CCCOc3cccc4ccccc34)c(C(=O)O)n(CCN3CCOCC3)c12 (max 10 µM)
Result string: high bracket

Query string: # classify by GRmax, 72 h band: CN(C)C(=O)c1cc2cnc(Nc3ccc(N4CCNCC4)cn3)nc2n1C1CCCC1 [LEE011/Ribociclib] (max 10 µM)
Result string: high bracket

Query string: Category of CCCCOc1c(C(=O)c2c(F)cc(C)cc2F)c[nH]c2nncc1-2 (max 10 µM) :
Result string: middle bracket

Query string: Please classify: CN(C)CC[C@H](CSc1ccccc1)Nc1ccc(S(=O)(=O)NC(=O)c2ccc(N3CCN(Cc4ccccc4-c4ccc(Cl)cc4)CC3)cc2)cc1[N+](=O)[O-] [ABT-737] (max 10 µM)
Result string: high bracket
